Assay: Stability of cannabinoid compounds and Vitamin E components in Beverage 2 (AB Red) by LCMSMS
Format: physicochemical
Settings: stored at 21-25° C., 19 days
Short version: Stability of Plant-Derived Cannabinoid Compounds in AB Red at least 3 µg/mL is true, less is false.

Study these solved cases before continuing.
Prompt: Please check the record `C=C(C)[C@@H]1CCC(C)=C[C@H]1c1c(O)cc(CCC)cc1O` and state if its Stability of Plant-Derived Cannabinoid Compounds in AB Red is at or above 3 µg/mL.
Response: false

Prompt: Confirm if Stability of Plant-Derived Cannabinoid Compounds in AB Red reported for the compound CCCCCc1cc(O)c2c(c1)OC(C)(CCC=C(C)C)C=C2 (stereo not drawn) is 3 µg/mL or above.
Response: false

Prompt: Tell me whether Stability of Plant-Derived Cannabinoid Compounds in AB Red is at least 3 µg/mL here: `C=C(C)[C@@H]1CCC(C)=C[C@H]1c1c(O)cc(CCCCC)c(C(=O)O)c1O`
Response: false

Prompt: Could you tell me if the measured Stability of Plant-Derived Cannabinoid Compounds in AB Red of `CCCCCc1cc(O)c(C/C=C(\C)CCC=C(C)C)c(O)c1` reaches 3 µg/mL or more?
Response: true

Prompt: Hello, I need to know if CCCCCc1cc(O)c2c(c1)OC1(C)CCC3C1C2C3(C)C (stereo not drawn) has measured Stability of Plant-Derived Cannabinoid Compounds in AB Red not below 3 µg/mL. Thanks!
Response: false

Next:
Prompt: Please check the record CCCc1cc(O)c2c(c1)OC(C)(C)[C@@H]1CCC(C)=C[C@@H]21 [THCV, delta-9-tetrahydrocannabivarin] and state if its Stability of Plant-Derived Cannabinoid Compounds in AB Red is at or above 3 µg/mL.
Response: true

Prompt: Quick check: does `CCCCCc1cc(O)c2c(c1)OC(C)(C)c1ccc(C)cc1-2` have Stability of Plant-Derived Cannabinoid Compounds in AB Red greater than or equal to 3 µg/mL?
Response: false

Prompt: Is the recorded value of Stability of Plant-Derived Cannabinoid Compounds in AB Red equal to or greater than 3 µg/mL for this compound? CCCCCc1cc2c(c(O)c1C(=O)O)[C@@H]1C=C(C)CC[C@H]1C(C)(C)O2 [D9 THCA, delta-9-tetrahydrocannabinolic acid]
Response: false

Prompt: Has CCCCCc1cc(O)c2c(c1)OC(C)(C)[C@@H]1CCC(C)=C[C@@H]21 [D9 THC, delta-9-tetrahydrocannabinol, reference compound] a recorded Stability of Plant-Derived Cannabinoid Compounds in AB Red greater than or equal to 3 µg/mL?
Response: true

====

Here, each record is paired with measured Stability of Plant-Derived Cannabinoid Compounds in AB White, 21-25° C. data.
Test: Stability of cannabinoid compounds and Vitamin E components in Beverage 1 (AB White) by LCMSMS
Format: physicochemical
Conditions: AB White stored at 21-25° C.; 330 days
# unit: µg/mL | format: bare number

Prompt: Fill blank: measured Stability of Plant-Derived Cannabinoid Compounds in AB White, 21-25° C. of the molecule CCCCCc1cc(O)c2c(c1)OC(C)(CCC=C(C)C)C=C2 (stereo not drawn) is ____.
Response: 0.312

Prompt: Name the reported Stability of Plant-Derived Cannabinoid Compounds in AB White, 21-25° C. value associated with the molecule CCCCCc1cc(O)c2c(c1)OC1(C)CCC3C1C2C3(C)C (stereo not drawn)
Response: 0.526

Continuing:
Prompt: What value of Stability of Plant-Derived Cannabinoid Compounds in AB White, 21-25° C. has been recorded for this entry: `CCCCCc1cc(O)c(C/C=C(\C)CCC=C(C)C)c(O)c1`
Response: 4.71

Prompt: What value of Stability of Plant-Derived Cannabinoid Compounds in AB White, 21-25° C. has been reported for the following molecule? `C=C(C)[C@@H]1CCC(C)=C[C@H]1c1c(O)cc(CCC)cc1O`
Response: 0.144

====

Assay: Stability of cannabinoid compounds and Vitamin E components in Beverage 2 (AB Red) by LCMSMS
Type: physicochemical
Conditions: stored at 21-25° C., 0 days
For each record, check the reported Stability of Plant-Derived Cannabinoid Compounds in AB Red: if it is below 1 µg/mL write yes, else write no.

Previously resolved entries follow.
Prompt: # check: Stability of Plant-Derived Cannabinoid Compounds in AB Red < 1 µg/mL for CCCCCc1cc(O)c2c(c1)OC1(C)CCC3C1C2C3(C)C (stereo not drawn) [CBL, cannabicyclol]
Response: yes

Prompt: # check: Stability of Plant-Derived Cannabinoid Compounds in AB Red < 1 µg/mL for CCCCCc1cc(O)c2c(c1)OC(C)(C)[C@@H]1CCC(C)=C[C@@H]21 [D9 THC, delta-9-tetrahydrocannabinol, reference compound]
Response: no

Prompt: Item CCCCCc1cc(O)c2c(c1)OC(C)(C)c1ccc(C)cc1-2 [CBN, cannabinol] : Stability of Plant-Derived Cannabinoid Compounds in AB Red beneath 1 µg/mL, strictly?
Response: no

Prompt: Determine whether this compound shows Stability of Plant-Derived Cannabinoid Compounds in AB Red lower than 1 µg/mL (ties excluded): CCCCCc1cc(O)c(C/C=C(\C)CCC=C(C)C)c(O)c1 [CBG, cannabigerol]
Response: no

Prompt: Is Stability of Plant-Derived Cannabinoid Compounds in AB Red strictly under 1 µg/mL for the entry CCCCCc1cc(O)c2c(c1)OC(C)(CCC=C(C)C)C=C2 (stereo not drawn) [CBC, cannabichromene] ?
Response: yes

Prompt: Is it true that Stability of Plant-Derived Cannabinoid Compounds in AB Red reported for C=C(C)[C@@H]1CCC(C)=C[C@H]1c1c(O)cc(CCC)cc1O [CBDV, cannabidivarin] is less than 1 µg/mL?
Response: yes

Further cases:
Prompt: Please determine if CCCCCc1cc2c(c(O)c1C(=O)O)[C@@H]1C=C(C)CC[C@H]1C(C)(C)O2 [D9 THCA, delta-9-tetrahydrocannabinolic acid] is below 1 µg/mL in terms of Stability of Plant-Derived Cannabinoid Compounds in AB Red.
Response: no

Prompt: A record lists CCCc1cc(O)c2c(c1)OC(C)(C)[C@@H]1CCC(C)=C[C@@H]21 [THCV, delta-9-tetrahydrocannabivarin] . Is its Stability of Plant-Derived Cannabinoid Compounds in AB Red below 1 µg/mL?
Response: no

Prompt: Strictly below 1 µg/mL: is that where Stability of Plant-Derived Cannabinoid Compounds in AB Red of C=C(C)[C@@H]1CCC(C)=C[C@H]1c1c(O)cc(CCCCC)c(C(=O)O)c1O [CBDA, cannabidiolic acid] sits?
Response: no

====

Assay: Stability of cannabinoid compounds and Vitamin E components in Beverage 1 (AB White) by LCMSMS
Assay type: physicochemical
Settings: AB White stored at 21-25° C.; 3 days
recordedEndpoint: Stability of Plant-Derived Cannabinoid Compounds in AB White, 21-25° C. (µg/mL)
Hi! Could you send only the number? It should be in µg/mL, unit omitted.

Prompt: Fill in the blank: the reported Stability of Plant-Derived Cannabinoid Compounds in AB White, 21-25° C. of CCCCCc1cc2c(c(O)c1C(=O)O)[C@@H]1C=C(C)CC[C@H]1C(C)(C)O2 [D9 THCA, delta-9-tetrahydrocannabinolic acid] is ____.
Response: 0.920

Prompt: Requested read-out: Stability of Plant-Derived Cannabinoid Compounds in AB White, 21-25° C.. Entry: `CCCCCc1cc(O)c(C/C=C(\C)CCC=C(C)C)c(O)c1`
Response: 4.75

Prompt: For the compound shown here, `C=C(C)[C@@H]1CCC(C)=C[C@H]1c1c(O)cc(CCCCC)c(C(=O)O)c1O` , give the reported Stability of Plant-Derived Cannabinoid Compounds in AB White, 21-25° C..
Response: 1.71

---
Prompt: Which Stability of Plant-Derived Cannabinoid Compounds in AB White, 21-25° C. value is on record for `CCCCCc1cc(O)c2c(c1)OC(C)(C)c1ccc(C)cc1-2` ?
Response: 2.73

Prompt: Sample `C=C(C)[C@@H]1CCC(C)=C[C@H]1c1c(O)cc(CCC)cc1O` — what was its Stability of Plant-Derived Cannabinoid Compounds in AB White, 21-25° C.?
Response: 0.149

====

Experiment: Stability of cannabinoid compounds and Vitamin E components in Beverage 1 (AB White) by LCMSMS
Assay type: physicochemical
Conditions: AB White stored at 21-25° C.; 480 days
recordedEndpoint: Stability of Plant-Derived Cannabinoid Compounds in AB White, 21-25° C. (µg/mL)
# number only, unit µg/mL dropped from output

Below: 5 molecules and their reported Stability of Plant-Derived Cannabinoid Compounds in AB White, 21-25° C..
Prompt: Give its Stability of Plant-Derived Cannabinoid Compounds in AB White, 21-25° C. value. Item: CCCCCc1cc2c(c(O)c1C(=O)O)[C@@H]1C=C(C)CC[C@H]1C(C)(C)O2 [D9 THCA, delta-9-tetrahydrocannabinolic acid]
Response: 0.873

Prompt: Find the recorded Stability of Plant-Derived Cannabinoid Compounds in AB White, 21-25° C. belonging to CCCCCc1cc(O)c2c(c1)OC(C)(CCC=C(C)C)C=C2 (stereo not drawn) and report it.
Response: 0.294

Prompt: For the molecule shown here, CCCCCc1cc(O)c2c(c1)OC1(C)CCC3C1C2C3(C)C (stereo not drawn) , give the reported Stability of Plant-Derived Cannabinoid Compounds in AB White, 21-25° C..
Response: 0.510

Prompt: Entry CCCc1cc(O)c2c(c1)OC(C)(C)[C@@H]1CCC(C)=C[C@@H]21 [THCV, delta-9-tetrahydrocannabivarin] : reported Stability of Plant-Derived Cannabinoid Compounds in AB White, 21-25° C. = ?
Response: 3.30

Prompt: Report Stability of Plant-Derived Cannabinoid Compounds in AB White, 21-25° C. for `CCCCCc1cc(O)c(C/C=C(\C)CCC=C(C)C)c(O)c1` please.
Response: 4.46

New cases:
Prompt: Entry `C=C(C)[C@@H]1CCC(C)=C[C@H]1c1c(O)cc(CCC)cc1O` has what Stability of Plant-Derived Cannabinoid Compounds in AB White, 21-25° C.?
Response: 0.143

Prompt: What does the record list as Stability of Plant-Derived Cannabinoid Compounds in AB White, 21-25° C. for `C=C(C)[C@@H]1CCC(C)=C[C@H]1c1c(O)cc(CCCCC)c(C(=O)O)c1O` ?
Response: 1.63

Prompt: Which value of Stability of Plant-Derived Cannabinoid Compounds in AB White, 21-25° C. has been reported for `CCCCCc1cc(O)c2c(c1)OC(C)(C)c1ccc(C)cc1-2` in the records?
Response: 2.57

Prompt: // Stability of Plant-Derived Cannabinoid Compounds in AB White, 21-25° C. lookup, key: CCCCCc1cc(O)c2c(c1)OC(C)(C)[C@@H]1CCC(C)=C[C@@H]21 [D9 THC, delta-9-tetrahydrocannabinol, reference compound]
Response: 11.2
